Biological target: T1, human GIP receptor (human) (UniProt P48546)
T1 sequence (looked up): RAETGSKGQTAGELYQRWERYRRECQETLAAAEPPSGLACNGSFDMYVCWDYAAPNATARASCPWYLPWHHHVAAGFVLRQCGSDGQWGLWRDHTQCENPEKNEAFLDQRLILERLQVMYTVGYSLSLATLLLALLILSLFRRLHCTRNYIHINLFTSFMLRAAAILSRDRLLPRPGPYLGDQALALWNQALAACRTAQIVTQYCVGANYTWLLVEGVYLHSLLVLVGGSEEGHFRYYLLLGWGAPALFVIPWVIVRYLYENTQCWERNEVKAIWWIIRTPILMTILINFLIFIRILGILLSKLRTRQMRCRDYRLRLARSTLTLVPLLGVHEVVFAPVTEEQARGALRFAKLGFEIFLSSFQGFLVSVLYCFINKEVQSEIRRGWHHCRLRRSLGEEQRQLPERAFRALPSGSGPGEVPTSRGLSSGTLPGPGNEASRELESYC
Assay: cell-based or functional assay
Mark true for reported cAMP EC50 of 0.01 nM or greater; mark false for anything smaller.

| binder | label |
| --- | --- |
| IP299 (Fc fusion) YSEGTFISDYSKLLEEEAVRDFVEWLKAGGGGGGGSGGGGSGGGGSGGGGSATHTCPPC | true |
| IP204 (Fc fusion) HGEGTFISDYSIAMDKIHQQDFVNWLLAQKAAAGGSGSTASSGSGSATGGGGAATHTCPPCPAPEF | true |
| IP352 (Fc fusion) YSEGTFTSDYSKLLERQAIDEFIAMLLKGEGGGGGSGGGGSGGGGSGGGGSGGGGSGGGGSA | false |
| IP346 (Fc fusion) YSEGTFTSDYSKLLERQAIDEFIAFLLKGGGGGGGSGGGGSGGGGSGGGGSGGGGSGGGGSA | true |
| IP343 (Fc fusion) YSEGTFTSDYAAAAERQAIDAFAAWLAAAAGGGGGSGGGGSGGGGSGGGGSA | true |
